- Measurement target: human vasopressin V1a receptor subtype (Homo sapiens, UniProt P37288)
- Construct: host or cells: CHO cells (pZeoSV vector for the Thibonnier line)
- Sequence (P37288 whole entry): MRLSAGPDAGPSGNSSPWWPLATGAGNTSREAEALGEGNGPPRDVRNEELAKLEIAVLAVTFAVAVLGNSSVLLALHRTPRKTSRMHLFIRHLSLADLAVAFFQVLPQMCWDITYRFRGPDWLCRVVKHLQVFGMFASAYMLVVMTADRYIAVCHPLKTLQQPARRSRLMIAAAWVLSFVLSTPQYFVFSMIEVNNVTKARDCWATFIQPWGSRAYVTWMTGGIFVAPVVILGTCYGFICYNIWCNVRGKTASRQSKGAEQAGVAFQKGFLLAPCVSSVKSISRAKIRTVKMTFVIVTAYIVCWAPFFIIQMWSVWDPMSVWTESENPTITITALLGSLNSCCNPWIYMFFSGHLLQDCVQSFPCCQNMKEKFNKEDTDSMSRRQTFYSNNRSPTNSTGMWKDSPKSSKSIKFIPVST
- Assay summary: Vasopressin binding in Chinese Hamster Ovary cell membranes expressing human vasopressin V1a subtype receptors
- Test settings: 100 nM, CHO cell membranes, [3H]Manning ligand, values without parentheses
Entries and their inhibition at 0.1 µM values follow.
Please reply with the bare figure in % and do not write the unit itself.

Example molecules with recorded inhibition at 0.1 µM:
• Cc1cc(C(=O)N2Cc3ccc(C(=O)NCCC4CCCN4C)n3Cc3ccccc32)ccc1-c1ccccc1C(F)(F)F (stereo not shown) [Example 174] = 8
• COc1cc(-c2ccccc2C)c(Cl)cc1C(=O)N1Cc2ccc(C(=O)N3CCN(CCN4CCOCC4)CC3)n2Cc2ccccc21 [Example 217] = 21
• COc1cc(C(=O)N2Cc3ccc(C(=O)N4CCN(CCN5CCOCC5)CC4)n3Cc3ccccc32)ccc1-n1c(C)ccc1C [Example 317] = 10
• Cc1cc(C(=O)N2Cc3ccc(C(=O)N(CCCN(C)C)CCCN(C)C)n3Cc3ccccc32)ccc1-c1ccccc1C(F)(F)F [Example 3] = -8

Query: Name the recorded inhibition at 0.1 µM for COc1ccccc1-c1ccc(C(=O)N2Cc3ccc(C(=O)N[C@@H](Cc4c[nH]cn4)C(N)=O)n3Cc3ccccc32)cc1OC [Example 286] .
Response: 8

Query: Which inhibition at 0.1 µM value is on record for COc1cc(-c2ccccc2C)c(Cl)cc1C(=O)N1Cc2ccc(C(=O)NCCCN(C)C)n2Cc2ccccc21 [Example 78] ?
Response: -3

Query: I am curious: what inhibition at 0.1 µM value has been reported for COc1ccccc1-c1ccc(C(=O)N2Cc3ccc(C(=O)N4CCN(C)CC4)n3Cc3ccccc32)cc1OC [Example 56] ?
Response: 2

* * *

- Measurement target: human oxytocin receptor (Homo sapiens, UniProt P30559)
- Construct: host or cells: CHO cells (pcDNA3.1 vector)
- Sequence (P30559 whole entry): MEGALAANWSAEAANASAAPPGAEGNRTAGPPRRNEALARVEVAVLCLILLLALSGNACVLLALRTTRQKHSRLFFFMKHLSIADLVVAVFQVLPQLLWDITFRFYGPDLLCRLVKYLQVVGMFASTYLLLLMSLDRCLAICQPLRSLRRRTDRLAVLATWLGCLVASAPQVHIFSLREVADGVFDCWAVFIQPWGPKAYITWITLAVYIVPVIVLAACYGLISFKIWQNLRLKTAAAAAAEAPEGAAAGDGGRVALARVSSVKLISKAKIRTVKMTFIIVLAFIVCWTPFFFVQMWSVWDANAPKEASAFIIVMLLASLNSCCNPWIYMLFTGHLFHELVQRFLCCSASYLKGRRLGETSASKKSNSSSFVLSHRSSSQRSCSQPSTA
- Assay summary: Oxytocin binding in Chinese Hamster Ovary cell membranes expressing human oxytocin receptors
- Test settings: 100 nM, CHO cell membranes, [3H]oxytocin, values without parentheses, read-out: OT % inhibition @ 100% nM
Endpoint label: inhibition at 0.1 µM (%)
Numeric answer only, unit % assumed.

* Cc1ccccc1-c1ccc(C(=O)N2Cc3ccc(C(=O)N4CCN(CCN5CCOCC5)CC4)n3Cc3ccccc32)cc1C | 98

Query: // returns reported inhibition at 0.1 µM for input `COc1cc(C(=O)N2Cc3ccc(C(=O)NCCN4CCCCC4)n3Cc3ccccc32)ccc1-n1c(C)ccc1C`
Response: 19

Query: Please look up its inhibition at 0.1 µM: `Cc1ccccc1-c1ccc(C(=O)N2Cc3ccc(C(=O)N4CCN(CCCN(C)C)CC4)n3Cc3ccccc32)cc1C`
Response: 97

Query: Consider the molecule shown here: `COc1cc(C(=O)N2Cc3ccc(C(=O)N(C)C4CCN(C)CC4)n3Cc3ccccc32)ccc1-c1cccc2ccccc12` What is its recorded inhibition at 0.1 µM?
Response: 70

* * *

- Measurement target: human vasopressin V2 receptor subtype (Homo sapiens, UniProt P30518)
- Construct: host or cells: CHO cells (pZeoSV vector)
- Sequence (P30518 whole entry): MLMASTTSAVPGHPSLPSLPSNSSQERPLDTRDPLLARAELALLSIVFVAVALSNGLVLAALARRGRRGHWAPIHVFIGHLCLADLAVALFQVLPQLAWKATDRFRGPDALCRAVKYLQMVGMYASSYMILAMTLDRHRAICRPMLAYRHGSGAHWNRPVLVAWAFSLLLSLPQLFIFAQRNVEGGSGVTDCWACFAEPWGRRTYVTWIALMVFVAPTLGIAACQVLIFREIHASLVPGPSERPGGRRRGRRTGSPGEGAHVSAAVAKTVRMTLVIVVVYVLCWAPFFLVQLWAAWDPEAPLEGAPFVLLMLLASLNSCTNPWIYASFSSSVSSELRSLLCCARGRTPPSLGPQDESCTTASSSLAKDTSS
- Assay summary: Vasopressin binding in Chinese Hamster Ovary cell membranes expressing human vasopressin V2 subtype receptors
- Test settings: 100 nM, CHO cell membranes, [3H]arginine vasopressin, values without parentheses
Short version: inhibition at 0.1 µM at least 20% is Met, less is Not met.

// below: answered molecules
- COc1ccccc1-c1ccc(C(=O)N2Cc3ccc(C(=O)N(C)CCN(C)C)n3Cc3ccccc32)cc1: Not met
- COc1cc(C(=O)N2Cc3ccc(C(=O)NCCCN(C)C)n3Cc3ccccc32)ccc1-n1c(C)ccc1C: Not met
- COc1ccccc1-c1ccc(C(=O)N2Cc3ccc(C(=O)NCCCN(C)C)n3Cc3ccccc32)cc1OC: Met
- COc1cc(C(=O)N2Cc3ccc(C(=O)N4CCN(CCN(C)C)CC4)n3Cc3ccccc32)ccc1-n1c(C)ccc1C: Not met
- COc1cccc(-c2ccc(C(=O)N3Cc4ccc(C(=O)N(C)C5CCN(C)CC5)n4Cc4ccccc43)cc2C)c1: Not met

Now for another entry.
Query: # check: inhibition at 0.1 µM of `Cc1ccccc1-c1ccc(C(=O)N2Cc3ccc(C(=O)N4CCN(CCN(C)C)CC4)n3Cc3ccccc32)cc1C` is greater than or equal to 20%
Response: Not met

Where do these numbers come from? They come from patent US7109193B2.
